# assay procedure: qHTS assay to identify small molecule agonists of the androgen receptor (AR) signaling pathway in the presence of an antagonist - cell viability counter screen (AID 1259379); also: nearly all actives have a fitted effect of over 25% in size
# test parameters: MDA-kb2 viability, CellTiter-Fluor, 16 h; series mostly up to 92.4 µM
Records with an inconclusive call do not appear. Calls of active or inactive are those of the source. Calls follow the shape of the dose curve; as a rule, active = well fitted cell-killing curve with a large enough effect in the repeat runs; inconclusive = weak or mixed curves, or effect the other way; inactive = flat fitted curve, though single readings scatter.
Can you answer with just one of these options? yes (1) for active, no (0) for inactive

Worked cases, answers included:
>>> df
                                   compound    label
0                  CCCCCC/C=C\CCCCCCCC(=O)O   no (0)
1  C#C[C@]1(OC(C)=O)CC[C@H]2[C@@H]3CCC4=C[C@@H](OC(C)=O)CC[C@@H]4[C@H]3CC[C@@]21C   no (0)
2  CCN(CC)c1ccc2c(-c3ccc(S(=O)(=O)O)cc3S(=O)(=O)[O-])c3ccc(=[N+](CC)CC)cc-3oc2c1  yes (1)
3  C#CC1(O)CC[C@H]2[C@@H]3CCC4=CCCC[C@@H]4[C@H]3CC[C@@]21C (some centres undefined)   no (0)

Write down the call the test reported for this compound. Item: `CC/C=C\CCCCCO`
no (0)

Name the outcome recorded for `CC[N+](CC)(CC)CCOc1ccc(/C=C/c2ccccc2)cc1` in the assay.
yes (1)

In this assay, the call recorded for `O=C(O)Cc1ccc2c(c1)C(=O)c1ccccc1CO2` was what?
no (0)

I'd appreciate the recorded outcome for `CCCC(=O)OC(C)(C)Cc1ccccc1` from this test.
no (0)

Lab log entry: `CCCCOC(=O)CO` — outcome as called in the assay?
no (0)

---

# target: Androgen receptor (Homo sapiens) (UniProt P10275)
# Sequence (P10275 whole entry, looked up): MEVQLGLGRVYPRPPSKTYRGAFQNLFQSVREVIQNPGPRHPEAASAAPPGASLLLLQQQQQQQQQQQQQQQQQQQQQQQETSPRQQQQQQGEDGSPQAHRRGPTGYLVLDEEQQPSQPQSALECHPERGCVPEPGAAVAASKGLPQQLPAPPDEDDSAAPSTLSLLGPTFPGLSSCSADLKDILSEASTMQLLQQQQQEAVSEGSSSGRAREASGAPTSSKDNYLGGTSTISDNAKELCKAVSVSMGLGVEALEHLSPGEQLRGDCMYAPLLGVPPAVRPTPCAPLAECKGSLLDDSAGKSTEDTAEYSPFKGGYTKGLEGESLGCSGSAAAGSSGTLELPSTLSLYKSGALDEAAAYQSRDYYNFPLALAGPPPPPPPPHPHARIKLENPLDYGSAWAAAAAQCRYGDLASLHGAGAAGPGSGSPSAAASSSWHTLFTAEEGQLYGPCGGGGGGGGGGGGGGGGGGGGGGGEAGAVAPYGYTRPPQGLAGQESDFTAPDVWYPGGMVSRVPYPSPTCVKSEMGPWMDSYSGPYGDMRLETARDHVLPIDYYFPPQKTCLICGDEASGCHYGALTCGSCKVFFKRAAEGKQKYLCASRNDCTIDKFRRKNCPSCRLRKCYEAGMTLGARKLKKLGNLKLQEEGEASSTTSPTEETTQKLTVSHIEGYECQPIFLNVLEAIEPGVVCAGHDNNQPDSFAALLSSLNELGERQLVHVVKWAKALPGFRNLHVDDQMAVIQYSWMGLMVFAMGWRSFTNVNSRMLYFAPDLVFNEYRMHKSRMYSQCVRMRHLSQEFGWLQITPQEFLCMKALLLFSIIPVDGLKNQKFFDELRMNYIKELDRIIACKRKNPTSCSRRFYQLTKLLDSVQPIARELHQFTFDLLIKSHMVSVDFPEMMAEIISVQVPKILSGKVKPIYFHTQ
# assay procedure: qHTS assay to identify small molecule antagonists of the androgen receptor (AR) signaling pathway using the MDA cell line in the presence of 0.5 nM R1881 (AID 1259243); also: nearly all actives have a fitted effect of over 50% in size
# test parameters: MDA-kb2 MMTV-luciferase, R1881 0.5 nM, 16 h; series mostly up to 92.4 µM
Results filed as inconclusive are left out. The source made the active and inactive calls. Calls follow the shape of the dose curve; as a rule, active = well fitted inhibition curve with a large enough effect in the repeat runs; inconclusive = weak or mixed curves; inactive = no such curve, though single readings can be large or run the other way.
Lab note: assign the record to one of active, inactive

In [3]: df
Out[3]:
                                   compound     label
0                             NC(=S)NC(N)=S  inactive
1   COC(=O)Nc1nc2ccc(C(=O)c3ccccc3)cc2[nH]1  inactive
2  CCN1C(=O)c2ccccc2C1Nc1ccc(OCCN2CCCCC2)cc1 (stereo not given)  inactive
3             Cc1cccc(C)c1NC(=O)c1ccc(N)cc1  inactive

Please find the next compound below.
What is the recorded call for this compound in the test? `CCCc1ccc(OCC(=O)N2CCN(C(=O)COc3ccc(CCC)cc3OC)CC2)c(OC)c1`
active

---

# assay procedure: qHTS assay for identifying genotoxic compounds that show differential cytotoxicity against isogenic chicken DT40 cell lines with known DNA damage response pathways - Rad54/Ku70 mutant cell line (AID 743015); also: nearly all actives have a fitted effect of over 60% in size
# test parameters: DT40 Rad54/Ku70 mutant viability, CellTiter-Glo, 40 h; series mostly up to 66.8 µM
Results filed as inconclusive are left out. Activity calls are given as the source filed them. The call rests on the fitted dose curve; in most records, active means well fitted cell-killing curve with a large enough effect in the repeat runs; inconclusive means weak or mixed curves; inactive means no such curve, though single readings can be large or run the other way.
Pick from label 1 for active, label 0 for inactive when you respond.

Some solved cases for reference:
                                   molecule    label
0  CCC(C)(CCC(C)C)C(=O)[O][Sn]([CH3])([CH3])[O]C(=O)C(C)(CC)CCC(C)C (stereo not given)  label 0
1                       Nc1nc(-c2ccccc2)cs1  label 0
2  Cc1c(C)c([N+](=O)[O-])c(C(C)(C)C)c([N+](=O)[O-])c1C  label 0
3                           Cc1ccc(O)c(O)c1  label 1

Just curious, what result did `COC(C)=O` get here?
label 0

---

# assay procedure: qHTS assay to identify small molecule antagonists of the constitutive androstane receptor (CAR) signaling pathway - cell viability counter screen (AID 1224837); also: nearly all actives have a fitted effect of over 45% in size
# test parameters: HepG2-CYP2B6-hCAR viability, CellTiter-Fluor, 23 h, co-treated with 50 nM CITCO; series mostly up to 92.4 µM
Results filed as inconclusive are left out. Active and inactive are the calls of the source. Calls come from the whole dose curve; as a rule, active = well fitted cell-killing curve with a large enough effect in the repeat runs; inconclusive = weak or mixed curves, or effect the other way; inactive = flat fitted curve, though single readings scatter.
Respond only with the outcome that fits, drawn from Yes = active, No = inactive

In [3]: df
Out[3]:
                                   compound  label
0  CC(C)(c1cc(Br)c(OCC(Br)CBr)c(Br)c1)c1cc(Br)c(OCC(Br)CBr)c(Br)c1 (stereo not given)     No

Short answer needed: outcome of this test for `CCOC(=O)Cn1cccc1-c1nc(-c2ccc(OC)cc2)c(-c2ccc(OC)cc2)s1` ?
No

Which outcome was entered for the compound `C=C(C)c1cccc(C(=C)C)c1` in this test?
No

# fetch the recorded call for `COc1ccc2cc1Oc1ccc(cc1)C[C@H]1c3c(cc4c(c3Oc3cc5c(cc3OC)CCN(C)[C@@H]5C2)OCO4)CCN1C` here
Yes

---

# assay procedure: qHTS assay to identify small molecule antagonists of the estrogen related receptor (ERR) signaling pathway from Tox21 library - cell viability counter screen (AID 1224834); also: nearly all actives have a fitted effect of over 30% in size
# test parameters: ERR reporter cells viability, CellTiter-Fluor, 17.5 h; series mostly up to 92.4 µM
Records with an inconclusive call do not appear. The source made the active and inactive calls. The call rests on the fitted dose curve; in most records, active means well fitted cell-killing curve with a large enough effect in the repeat runs; inconclusive means weak or mixed curves; inactive means flat fitted curve, though single readings scatter.
Could you please pick one outcome from this set? Y for active, N for inactive

These recorded examples may help you get a feel for the data.
                                   compound  label
0  CC1(C)CCC[C@]2(C)[C@H]3CCO[C@]3(C)CC[C@@H]12      N
1  CCOC(=O)c1ccc(C2CCC(NC[C@H](O)COc3ccc(O)c(NS(C)(=O)=O)c3)CC2)cc1 (stereo not given in full)      Y
2  CCCCC(CC)COC(=O)CCCCC(=O)OCc1ccccc1 (stereo not given)      N
3  COc1ccc2cc1Oc1ccc(cc1)C[C@H]1c3c(cc4c(c3Oc3cc5c(cc3OC)CCN(C)[C@@H]5C2)OCO4)CCN1C      Y
4                   C#Cc1ccc(-c2ccccc2F)cc1      N

Record request — test call for `CC(=O)CC(=O)Nc1ccc(S(=O)(=O)O)cc1`
N

Please state the recorded outcome for this compound: `CCCC[P+](C)(CCCC)CCCC`
N

Hi, sorry to bother you, what did the test record for `O=C(O)Cc1ccc2c(c1)C(=O)c1ccccc1CO2` ?
N

Assay outcome for `C=CC(=O)OCCOC(=O)C=C` : what was it?
N

Record request — test call for `O=[N+]([O-])c1ccc(O)cc1C(F)(F)F`
Y

Outcome? C=CC(C)(CCC=C(C)C)OC=O (stereo not given)
N

What was the test verdict on `Nc1nc2c(ncn2COCCO)c(=O)[nH]1` ?
N

What is the recorded call for this compound in the test? `CCCCCc1ccc(Cl)cc1`
N

Would you mind telling me which call this test gave `COc1ccc(NC(=O)CC(C)=O)cc1` ?
N

Hi team, can someone confirm the assay call for `Cc1ccc(C)cc1` ?
N

Fill in: this test's call for `O=C(O)CCN(C1(C(=O)NO)CCCC1)S(=O)(=O)c1ccc(Oc2ccc(F)cc2)cc1` is ___
N

Write down the call the test reported for this compound. Item: `O[C@@H]([C@H](O)[C@H](O)CBr)[C@H](O)CBr`
N

I would be grateful if you could indicate the recorded call for CC(C)(C)c1ccc(C(O)CCCN2CCC(C(O)(c3ccccc3)c3ccccc3)CC2)cc1 (stereo not given) .
Y

Returns: the outcome recorded for `C=Cc1cccc(C)c1` in this assay.
N

Tell me the recorded outcome of this test for `CCCC(=O)OCCc1ccccc1` .
N

Test call, this compound: C=CCCC(=O)/C=C/C1C(C)=CCCC1(C)C (stereo not given)
N

Could you please tell me the result logged for Cc1c(F)c(N2CCNC(C)C2)cc2c1c(=O)c(C(=O)O)cn2C1CC1 (stereo not given) in this assay?
N

Name the outcome recorded for `Clc1sc(Cl)c(Cl)c1Cl` in the assay.
N

In this assay, the call recorded for `Cc1cc(=O)oc2cc(O)cc(O)c12` was what?
N

Short answer needed: outcome of this test for CC(CCc1ccccc1)NCC(O)c1ccc(O)c(C(N)=O)c1 (stereo not given) ?
Y

I'd appreciate the recorded outcome for `Clc1ccnc(Cl)n1` from this test.
N

---

# assay procedure: qHTS assay to identify small molecule agonists of the estrogen receptor beta (ER-beta) signaling pathway - cell viability counter screen (AID 1259380); also: nearly all actives have a fitted effect of over 30% in size
# test parameters: ER-beta-bla HEK293T viability, CellTiter-Glo luminescence, 16 h; series mostly up to 92.4 µM
Results filed as inconclusive are left out. Activity calls are given as the source filed them. Calls come from the whole dose curve; as a rule, active = well fitted cell-killing curve with a large enough effect in the repeat runs; inconclusive = weak or mixed curves, or effect the other way; inactive = flat fitted curve, though single readings scatter.
The reply should be one of these categories: class 1 for active, class 0 for inactive

Hey, what did the test say about `CN(C)C(=O)COC(=O)Cc1ccc(OC(=O)c2ccc(N=C(N)N)cc2)cc1` ?
class 0

Hello, I am checking results. What call was entered for `C=Cc1ccccc1C=C` ?
class 0

What outcome does the record of this test show for `O=C(Nc1ccc2c(O)c(N=Nc3ccc(N=Nc4ccc(S(=O)(=O)O)cc4)cc3)c(S(=O)(=O)O)cc2c1)c1ccccc1` ?
class 0

Entry `Cc1cc(C)c(/C=C2\C(=O)Nc3ccccc32)[nH]1` : call = ?
class 1

Could you please tell me the result logged for `CCO[Si](OCC)(OCC)OCC` in this assay?
class 0

Assay result, entry CC(=O)Oc1cc2c(s1)CCN(C(C(=O)C1CC1)c1ccccc1F)C2 (stereo not drawn) — outcome?
class 0

Hello, I am checking results. What call was entered for `CCc1ccc(Br)cc1` ?
class 0

What is the recorded call for this compound in the test? `CCCCCc1ccc(Cl)cc1`
class 0

Which outcome was assigned to `COc1c(C)c2c(c(O)c1C/C=C(\C)CCC(=O)OCCN1CCOCC1)C(=O)OC2` in this test?
class 1

Recorded call for `CCCCC/C=C\C/C=C\CCCCCCCC(=O)O` ?
class 1

Test call, this compound: `CCC(=O)C(=O)CC`
class 0

Could you kindly confirm the outcome this assay logged for `CCCCCCCCCCCCOC(=O)c1ccc(O)cc1` ?
class 0

Recorded test call requested for `CN(C)CCN1CCN(c2cccc(Cl)c2)C1=O`
class 0

For OC1CCC(C2CCCCC2)CC1 (stereo not drawn) , what call appears in the results of this test?
class 0
